- Test system: XIP peptide (Xip251-270)
- experimental.protocol: small-molecule binders of XIP peptide, primary screen, biochemical, small-molecule microarray, fluorescence 635/667 nm, 0.5 µg/mL protein (AID 1183)
- measurement.parameters: small-molecule microarray binding, fluorescence 635 nm; higher = more signal
measured.metric: composite z-score
Kindly provide the number alone.

- CCCC=C(CCC)[C@@H](NC(=O)CCc1ccccc1)c1ccc(C(F)(F)F)cc1: 0.75
- Cc1cccc([C@H]2C[C@H]3C(Br)=C[C@@H]2C(=O)[C@]32CO2)c1: -0.848
- C=CCN1C(=O)[C@]2(O[C@H](CCO)[C@@H]([Si](C)(C)c3ccc(OC)cc3)[C@@H]2C)c2cc(NC(=O)c3ccc(OC)cc3)ccc21: 0.456
- C=C(/C(=C/C[C@@H](OC(C)=O)c1ccc(CO)o1)c1cc(C(=O)OC)ccc1OC)C(C)C: 0.135

-- ask Quick one: composite z-score for CC=CC(O)C1C=CC2C(=O)NC(=O)C2N1Nc1ccccn1 (stereo not drawn) ?
-- reply 0.684

-- ask Quick one: composite z-score for C=CCNC(=O)[C@H]1[C@@H]2C(=O)O[C@@H](c3ccccc3)[C@@H](c3ccccc3)N2[C@@H](c2ccc(O)cc2)[C@]12C(=O)N(C(=O)OCCOC)c1ccc(C#CCC(C(=O)OC)C(=O)OC)cc12 ?
-- reply 0.761

-- ask Quick one: composite z-score for Cc1nc2cc(Br)ccc2c(=O)n1Cc1cccc(O)c1 ?
-- reply 0.529

-- ask Quick one: composite z-score for C=C(C(=O)CC[C@@H](OC(=O)c1ccccc1-c1ccccc1C(=O)O)c1ccccc1OCCO)C(C)C ?
-- reply 0.698

---

- Test system: Wnt5a (protein binding on small-molecule microarray)
- experimental.protocol: Wnt5a binders on small-molecule microarray, primary screen, biophysical, 635/667 nm fluorescence (AID 1142);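 note: fluorescence read at 667 nm with signal to noise per printed feature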
- measurement.parameters: 635 nm fluorescence, higher = more signal
Please use True whenever composite z-score is not below 0.2, and False whenever it is.

- CO[C@H]1O[C@H](CO)[C@@H](OC(=O)c2ccc(Br)cc2)[C@@H]2OC(=O)[C@H](Cc3ccccc3)C/C=C/C[C@@H](Cc3ccccc3)C(=O)O[C@@H]12: True
- C[C@]1(C(=O)O)c2ccccc2C(=O)N(Cc2ccc(OC(F)(F)F)cc2)[C@H]1c1ccc(CO)cc1: True
- CC(C)[Si]1(C(C)C)OCc2cc(-c3ccc(-c4ccc(Cl)c(Cl)c4)o3)nc(CCc3ccccc3)c21: False
- CC(C)C[C@@H]1NC(=O)CNC(=O)[C@@]23C(=O)N[C@@H](Cc4ccccc4)C2[C@H](C)[C@@]2(C)O[C@H]2C3/C=C/C/C=C\CNC1=O (stereo partly drawn): False
- CCCCC(=C=CC[C@H](O)c1ccc(OCCO)cc1)C[C@H](O)c1cc(Cl)cc(Cl)c1O: False
- CCOC(=O)C1=CCC(c2ccco2)N(S(=O)(=O)c2ccc(C)cc2)C1 (stereo not drawn): True

-- ask Please tell me: is the compound COCC(=C=CC[C@H](O)c1cccc(OCCO)c1)C[C@H](O)COCc1ccccc1 at or over 0.2 in terms of composite z-score?
-- reply False

---

- System: Noggin (protein binding on small-molecule microarray)
- experimental.protocol: Noggin binders on small-molecule microarray, primary screen, biochemical, 635/667 nm fluorescence (AID 1095);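 note: score merges 667 nm feature fluorescence with signal to noise over triplicate slides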
- measurement.parameters: 635 nm fluorescence, higher = more signal
measured.metric: composite z-score
Kindly provide the number alone.

Consider the worked cases shown below.
- C=CCNC(=O)[C@H]1[C@@H]2C(=O)O[C@@H](c3ccccc3)[C@@H](c3ccccc3)N2[C@@H](c2ccc(OCCO)cc2)[C@]12C(=O)N(C(=O)OCCOC)c1ccc(C#Cc3ccc(OC)cc3)cc12: 1.04
- Cc1ccc(F)cc1S(=O)(=O)N[C@@H]1CCN(Cc2cccc3[nH]ccc23)C1: 0.586
- COCCCNC(=O)[C@@]1(Sc2ccc(C)cc2)CC(=O)N(Cc2ccccc2Cl)[C@@H]1c1ccc(CO)cc1I: -0.691
- CC1CC/C=C\[C@H]2OC34C=CCN(CCN5CCOCC5)C(=O)[C@H]3N(C(C)CO)C(=O)[C@@H]4C2C(=O)O1 (stereo partly drawn): 0.223
- NC(=O)[C@@H]1[C@H]2C(=O)O[C@H](c3ccccc3)[C@H](c3ccccc3)N2[C@H](c2ccc(OCCO)cc2)[C@@]12C(=O)Nc1ccc(C#CCCO)cc12: -0.159

-- ask Quick one: composite z-score for C#C[C@@H](CC)O[Si](C#CCCCC#N)(C(C)C)C(C)C ?
-- reply -0.298

-- ask Quick one: composite z-score for COCCCNC(=O)[C@@H]1c2ccccc2C(=O)N(C2Cc3ccccc3C2)[C@H]1c1ccc(CO)cc1 ?
-- reply 0.163

-- ask Quick one: composite z-score for O=C(NCCN1CCOCC1)[C@@H]1c2ccccc2C(=O)N(Cc2ccccc2)[C@H]1c1ccc(CO)cc1 ?
-- reply 0.278

-- ask Quick one: composite z-score for CC(=O)n1cc(C(O)C2C=CC3C(=O)N(c4ccccc4)C(=O)C3N2Nc2ccc(C(C)C)cc2)c2ccccc21 (stereo not drawn) ?
-- reply -0.706

-- ask Quick one: composite z-score for Cc1ccc(C(C)CC(O)C2C=CC3C(=O)N(c4ccccc4)C(=O)C3N2Nc2ccc(C#N)cc2)o1 (stereo not drawn) ?
-- reply 0.383

-- ask Quick one: composite z-score for O=C1OCC=C[C@H]2OC34C=CCN(c5ccc6ccccc6c5)C(=O)[C@H]3N(CCCCCO)C(=O)[C@@H]4[C@@H]12 (stereo partly drawn) ?
-- reply -1.65

-- ask Quick one: composite z-score for Nc1cc(Br)ccc1C(=O)O ?
-- reply 0.136

-- ask Quick one: composite z-score for CC(=O)NCCCC[C@@H]1NC(=O)[C@@H]2C[C@H](C(=O)NCCCCCCN)[C@H](c3cccc(OCCO)c3)N2C1=O ?
-- reply 0.271

---

Recorded z-score for the following compounds
- experimental.protocol: modulators of S6 phosphorylation in cells, primary screen, cell-based, A549, cytoblot, luminescence, serum-stimulated (AID 1158);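 note: serum-stimulated A549 lung adenocarcinoma cells; signal is phosphorylated S6 detected by cytoblot immunostaining with HRP secondary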
- measurement.parameters: A549 phospho-S6 cytoblot, 5 h, higher = more signal
Kindly provide the number alone.

-- ask Quick one: z-score for COCCOC(=O)N1C(=O)[C@@]2(c3cc(C#CCCO)ccc31)[C@H](C(=O)N1CCCCCCC1)[C@H]1C(=O)O[C@H](c3ccccc3)[C@H](c3ccccc3)N1[C@@H]2c1ccccc1OCCO ?
-- reply -0.319

-- ask Quick one: z-score for Cc1ccc(S[C@]2(C(=O)NC(C)C)CC(=O)N(C(C)C)[C@@H]2c2ccc(CO)cc2I)cc1 ?
-- reply 0.293

-- ask Quick one: z-score for COC(=O)C1=CC(CCCO)=CC(C)N(Cc2cccc(OC(F)(F)F)c2)C=C1C(=O)OC (centres undefined) ?
-- reply -0.334

-- ask Quick one: z-score for NC(=O)[C@@H]1[C@H]2C(=O)O[C@H](c3ccccc3)[C@H](c3ccccc3)N2[C@H](c2ccc(OCCO)cc2)[C@@]12C(=O)Nc1ccc(C#CCCO)cc12 ?
-- reply 0.229

---

- experimental.protocol: COS7 lysate on small-molecule microarray, probe aHis, 635 nm (AID 1123);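 note: z-score combines 667nm fluorescence intensity with signal-to-noise per printed compound spot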
- measurement.parameters: COS7 cell lysate, fluorescence, higher = more signal
Recorded composite z-score for the following compounds
Kindly provide the number alone.

Consider the worked cases shown below.
* C[C@@H]1ON(c2ccc(I)cc2)[C@H](c2ccc(OC(=O)OC(C)(C)C)cc2)[C@H]1C(=O)N1C(=O)OC[C@H]1Cc1ccccc1 | 0.527
* CN1C(=O)[C@@]2(Cc3ccccc3)N=C(c3ccc(OCCCO)cc3)O[C@H]2c2ccccc21 | 2.68

-- ask Quick one: composite z-score for [N-]=[N+]=Nc1ccccc1C[C@@]1(C(=O)O)N=C(c2ccc(OCCCO)cc2)O[C@@H]1c1ccccc1N=[N+]=[N-] ?
-- reply 2.49

---

- experimental.protocol: small-molecule microarray binders of probe aXIP, primary screen, biochemical, NeuroSMM set, 635/667 nm fluorescence (AID 1119);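 note: probe is the protein aXip251-270 applied at 1 µg/mL to compound-printed slides; binding of probe to printed compounds measured as 667 nm fluorescence plus signal to noise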
- measurement.parameters: higher = more signal, called active from +8 up or from −8 down
Records here are stratified by composite Z-score; strata: low interval: < -0.1; middle interval: ≥ -0.1 and < 0.5; high interval: ≥ 0.5

A selection of reference data follows.
• COc1cc(NN2C(C(O)C3CCCCC3)C=CC3C(=O)N(C)C(=O)C32)cc(OC)c1OC (stereo not given) = high interval
• CCOC(=O)C[C@H]1[C@H](OC(=O)c2ccc(C(=O)c3ccccc3)cc2)[C@@H](NC(=O)CC(C)C)c2cc(OCCCO)ccc2N1C(=O)Cc1ccc(OC)cc1 = middle interval
• CCOC(=O)C=Cc1ccccc1O = low interval
• C=C(COC)C(=O)CC[C@H](OC(=O)c1cccnc1)c1ccc(CO)o1 = low interval
• CCCNC(=O)[C@@]1(C)c2ccccc2C(=O)N(Cc2ccccc2)[C@H]1c1ccc(CO)cc1 = high interval

-- ask Classify this molecule: COC(=O)[C@@]1(Cc2ccc(OC)cc2)[C@H]2c3cc(C(=O)N4CCCC4)n(Cc4cc(C)n(C)n4)c3C[C@H]2CN1C(=O)c1ccccc1
-- reply high interval

-- ask Classify this molecule: C=C(CCCC)C(=O)CC[C@H](OC(C)=O)c1ccc(OCCO)cc1
-- reply high interval

-- ask Classify this molecule: COc1ccc([Si](C)(C)[C@@H]2[C@@H](CCn3cc([C@H](O)c4ccccc4)nn3)O[C@]3(C(=O)N(c4ccccc4)c4ccccc43)[C@H]2C)cc1
-- reply low interval

-- ask Classify this molecule: CC(C)C[C@@H]1NC(=O)[C@@H]2C[C@H](C(=O)NCCCCCC[N+](C)(C)C)[C@H](c3cccc(OCCO)c3)N2C1=O
-- reply middle interval

-- ask Classify this molecule: COc1cccc(/C=C(\C#N)C(=O)Nc2c(C)n(C)n(-c3ccccc3)c2=O)c1
-- reply low interval
